experimental-system: UniProt P25100
Sequence (P25100 whole entry): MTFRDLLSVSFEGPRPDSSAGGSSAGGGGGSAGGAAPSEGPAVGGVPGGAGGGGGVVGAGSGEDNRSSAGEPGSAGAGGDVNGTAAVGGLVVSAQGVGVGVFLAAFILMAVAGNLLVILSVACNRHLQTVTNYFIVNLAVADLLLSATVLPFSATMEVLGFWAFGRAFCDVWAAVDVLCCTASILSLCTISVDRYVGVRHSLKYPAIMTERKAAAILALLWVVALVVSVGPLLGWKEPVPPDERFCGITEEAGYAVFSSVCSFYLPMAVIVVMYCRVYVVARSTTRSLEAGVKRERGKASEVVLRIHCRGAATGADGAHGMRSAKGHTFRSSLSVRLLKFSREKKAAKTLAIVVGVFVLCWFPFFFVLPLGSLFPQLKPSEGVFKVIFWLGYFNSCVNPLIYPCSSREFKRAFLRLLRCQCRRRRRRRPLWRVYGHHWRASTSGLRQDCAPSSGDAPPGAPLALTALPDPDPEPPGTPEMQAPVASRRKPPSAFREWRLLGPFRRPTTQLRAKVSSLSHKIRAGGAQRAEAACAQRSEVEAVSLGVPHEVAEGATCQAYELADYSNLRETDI
pKi: −log10 of the molar value.
quantity-name: pKi

{"compound": "COc1ccccc1N1CCN(CC2CCC(c3ccccc3)(c3ccccc3)C2=O)CC1 (stereo not given)", "pKi": 6.81}

1: COc1ccccc1OCCNCC1CCC(c2ccccc2)(c2ccccc2)C1=O (stereo not given)
2: O=C1C(CNCCOc2ccccc2)CCC1(c1ccccc1)c1ccccc1 (stereo not given)
3: COc1ccccc1N1CCN(CC2COC(c3ccccc3)(c3ccccc3)O2)CC1 (stereo not given)
Form: Sort by [pKi] Order [ ascending ] Form field (ranking): labels in requested order.
2, 1, 3
(2: 6.41, 1: 6.85, 3: 9.09)
